# Test target: T1, Rna14;Rna15 (Saccharomyces cerevisiae;Saccharomyces …, UniProt P25298;P25299 1-677;1-296, |)
# T1 sequence 1: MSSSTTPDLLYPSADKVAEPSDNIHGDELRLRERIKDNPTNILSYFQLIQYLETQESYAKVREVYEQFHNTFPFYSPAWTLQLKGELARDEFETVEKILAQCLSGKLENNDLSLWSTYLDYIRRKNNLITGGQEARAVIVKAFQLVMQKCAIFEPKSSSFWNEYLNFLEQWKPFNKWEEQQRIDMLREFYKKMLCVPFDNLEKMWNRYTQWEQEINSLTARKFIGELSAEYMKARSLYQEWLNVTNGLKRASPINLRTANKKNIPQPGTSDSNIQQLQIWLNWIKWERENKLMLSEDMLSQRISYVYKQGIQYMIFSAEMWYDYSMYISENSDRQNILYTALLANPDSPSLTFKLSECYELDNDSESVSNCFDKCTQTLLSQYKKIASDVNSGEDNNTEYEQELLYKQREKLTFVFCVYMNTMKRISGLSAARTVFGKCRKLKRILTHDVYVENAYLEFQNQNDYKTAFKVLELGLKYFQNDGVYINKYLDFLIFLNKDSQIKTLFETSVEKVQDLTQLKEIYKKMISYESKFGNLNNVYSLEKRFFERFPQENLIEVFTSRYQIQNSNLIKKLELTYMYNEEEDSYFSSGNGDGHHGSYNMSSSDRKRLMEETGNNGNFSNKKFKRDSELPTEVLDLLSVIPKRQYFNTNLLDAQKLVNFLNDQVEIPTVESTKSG
# T1 sequence 2: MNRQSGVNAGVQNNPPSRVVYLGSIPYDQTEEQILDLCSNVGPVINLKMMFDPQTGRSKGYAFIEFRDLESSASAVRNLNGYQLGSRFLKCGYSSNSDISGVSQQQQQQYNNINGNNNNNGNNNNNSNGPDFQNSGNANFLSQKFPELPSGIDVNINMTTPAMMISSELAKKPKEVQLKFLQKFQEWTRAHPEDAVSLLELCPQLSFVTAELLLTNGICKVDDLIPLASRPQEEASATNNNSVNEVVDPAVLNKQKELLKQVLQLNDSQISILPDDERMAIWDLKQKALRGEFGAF
# Experiment: EMSA; EMSA: 50 nM RNA, 0.25-4.0 uM protein, protein diluted in 10 mM HEPES pH 7.9, 150 mM NaCl, 0.5 mM Mg(OAc)2, plus 1x loading dye (orange G, glycerol, EDTA); 30 min on ice; native 6% acrylamide/TBE PAGE
# Condition details: protein: recombinant;recombinant; tags: 6H;; chain copies: 2;2; label: 5'-FAM

Binder	binding result
CGUUAUUUAUAUUUCAAAUUUUUCU (ssRNA) [CYC1f EMSA probe]	binds
GGGGGGGGGGGGGGG (ssRNA) [G15]	binds
AAAAAAAAAAAAAAA (ssRNA) [A15]	no binding
CCCCCCCCCCCCCCC (ssRNA) [C15]	no binding
AAGAACGUUAUUUAUAUUUCAAAUUUUUCUUUUUU (ssRNA) [CYC1d EMSA probe]	binds
UUUUUUUUUUUUUUU (ssRNA) [U15]	binds
